target: T1, Human β-cardiac myosin S2 peptide, wild-type (MYH7, 19 residues) (human, also: in FRET: FITC on N-terminus of one monomer, terbium-DTPA-cytosine chelate on C-terminal Lys of the other); experiment: FRET donor lifetime of labelled S2 peptide dimer titrated with destabilizer
T1 construct: Chemically synthesized; forms a coiled-coil dimer; also called human cardiac myosin S2 peptide; cardiac muscle myosin S2^pep
T1 peptide: EMNERLEDEEEMNAELTAK
Where no end group is shown, it is not given here.

>  <BINDER>
EMNERLEDEREMKAELTAK (also called destabilizing peptide; unlabeled destabilizer) [Destabilizer peptide]

>  <U>
µM

>  <Kd>
1.33

$$$$
